- PROTOCOL NOTES: Intrinsic clearance in rat liver microsomes
- Format: ADME
- EXPERIMENTAL SETUP: read-out: CLH
QUANTITY NAME: CLint scaled (mL/min/kg)
Report as a plain number; the unit mL/min/kg is understood.

Exercise: Name the recorded CLint scaled of the molecule listed here: `CS(=O)(=O)c1ccc(COC[C@@H]2C[C@@H]2C2CCN(c3ncc(Cl)cn3)CC2)nc1`
Key: 553

====

- TESTED TARGET: Glucose-dependent insulinotropic receptor (Homo sapiens, UniProt Q8TDV5)
- Sequence (Q8TDV5 whole entry): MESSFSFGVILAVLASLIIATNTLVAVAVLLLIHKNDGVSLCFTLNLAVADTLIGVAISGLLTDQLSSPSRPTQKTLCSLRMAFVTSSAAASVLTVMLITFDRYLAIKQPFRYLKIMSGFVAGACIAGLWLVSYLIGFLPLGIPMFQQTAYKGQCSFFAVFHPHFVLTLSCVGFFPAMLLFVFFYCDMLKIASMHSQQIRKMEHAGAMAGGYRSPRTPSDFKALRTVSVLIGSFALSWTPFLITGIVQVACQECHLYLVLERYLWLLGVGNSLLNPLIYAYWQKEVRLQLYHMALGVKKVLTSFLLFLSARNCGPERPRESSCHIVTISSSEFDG
- PROTOCOL NOTES: Agonist activity at human GPR119 expressed in CHO cells by cAMP assay
- Type: functional, cell-based
QUANTITY NAME: EC50 (nM)
Report as a plain number; the unit nM is understood.

Reference set (3 entries):
{"columns": ["MOLECULE", "TESTED TARGET", "DISPLAY UNIT", "REPORTED VALUE"],
 "data": [
  ["COCc1cnc(N2CCC([C@H]3C[C@H]3COCc3ccc(CC(=O)N4CCOCC4)cc3F)CC2)nc1", "Glucose-dependent insulinotropic receptor (Homo sapiens, UniProt Q8TDV5)", "nM", 3.2],
  ["CC(C)c1noc(N2CCC([C@H]3C[C@H]3COCc3ccc(S(C)(=O)=O)cc3F)CC2)n1", "Glucose-dependent insulinotropic receptor (Homo sapiens, UniProt Q8TDV5)", "nM", 4.2],
  ["O=S(=O)(CCO)c1ccc(COC[C@@H]2C[C@@H]2C2CCN(c3ncc(Cl)cn3)CC2)c(F)c1", "Glucose-dependent insulinotropic receptor (Homo sapiens, UniProt Q8TDV5)", "nM", 2.3]
]}

Now consider the entry below.
Exercise: Name the recorded EC50 of the molecule listed here: `CS(=O)(=O)c1ccc(COC[C@@H]2C[C@@H]2C2CCN(c3ncc(Cl)cn3)CC2)nc1`
Key: 8.7

====

- PROTOCOL NOTES: Fraction unbound in human plasma
- Type: ADME, cell-free
QUANTITY NAME: fraction unbound
Lab note: record the figure alone, no unit after it.

Exercise: Name the recorded fraction unbound of the compound listed here: `COCc1cnc(N2CCC([C@H]3C[C@H]3COCc3ccc(S(C)(=O)=O)cc3F)CC2)nc1`
Key: 0.049

====

- PROTOCOL NOTES: Drug level in mouse blood at 3 mg/kg after 90 mins
- Format: ADME, organism-based
- EXPERIMENTAL SETUP: whole blood, read-out: Drug uptake
QUANTITY NAME: concentration at 1.5 h (nM)
Report as a plain number; the unit nM is understood.

Exercise: Name the recorded concentration at 1.5 h of the molecule listed here: `COCc1cnc(N2CCC([C@H]3C[C@H]3COCc3ccc(S(C)(=O)=O)cc3F)CC2)nc1`
Key: 302

====

- PROTOCOL NOTES: Volume of distribution in rhesus monkey
- Assay type: ADME, organism-based, Macaca mulatta
- EXPERIMENTAL SETUP: in vivo
QUANTITY NAME: Vd (L/kg)
Report as a plain number; the unit L/kg is understood.

Exercise: Name the recorded Vd of the compound listed here: `COCc1cnc(N2CCC([C@H]3C[C@H]3COCc3ccc(S(C)(=O)=O)cc3F)CC2)nc1`
Key: 2

====

logD overview
- PROTOCOL NOTES: Lipophilicity, logD of the compound at pH 7 by HPLC method
- Type: physicochemical
- EXPERIMENTAL SETUP: buffer

Reference set (6 entries):
{"columns": ["STRUCTURE SMILES", "logD"],
 "data": [
  ["CCS(=O)(=O)c1ccc(OCC[C@@H]2C[C@@H]2C2CCN(c3nc(C(C)C)no3)CC2)c(F)c1", 4.2],
  ["CC(C)c1noc(N2CCC([C@H]3C[C@H]3COCc3ccc(S(C)(=O)=O)cc3F)CC2)n1", 3.8],
  ["CS(=O)(=O)c1ccc(COC[C@@H]2C[C@@H]2C2CCN(c3ncc(F)cn3)CC2)cc1F", 4.2],
  ["COCc1cnc(N2CCC([C@H]3C[C@H]3COCc3ccc(S(C)(=O)=O)c(F)c3)CC2)nc1", 3.5],
  ["COCc1cnc(N2CCC([C@H]3C[C@H]3COCc3cc(F)c(S(C)(=O)=O)c(F)c3)CC2)nc1", 3.6],
  ["CCOc1cnc(N2CCC([C@H]3C[C@H]3COCc3ccc(S(C)(=O)=O)c(F)c3)CC2)nc1", 4.2]
]}

Exercise: Name the recorded logD of the compound listed here: `CS(=O)(=O)c1ccc(COC[C@@H]2C[C@@H]2C2CCN(c3ncc(Cl)cn3)CC2)nc1`
Key: 3.7

Exercise: Name the recorded logD of the compound listed here: `CCc1cnc(N2CCC([C@H]3C[C@H]3COCc3ccc(S(C)(=O)=O)cn3)CC2)nc1`
Key: 3.6
